Reference for the values: patent US11661422B2

Measured target: pseudo-kinase domain (JH2, amino-acids 536-812) of human V617F mutant JAK2 (Homo sapiens (Human), UniProt O60674, F794H/V617F/W659A/W777A)
Sequence (O60674 536-812 V617F/W659A/W777A/F794H): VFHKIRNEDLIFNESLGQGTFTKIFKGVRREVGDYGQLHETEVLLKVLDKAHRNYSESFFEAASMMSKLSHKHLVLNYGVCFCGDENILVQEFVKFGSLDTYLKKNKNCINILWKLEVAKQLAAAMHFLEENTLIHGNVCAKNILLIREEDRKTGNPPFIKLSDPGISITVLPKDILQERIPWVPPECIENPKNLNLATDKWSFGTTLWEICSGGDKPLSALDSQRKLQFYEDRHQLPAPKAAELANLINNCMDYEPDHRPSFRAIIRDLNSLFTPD
Assay info: JAK2 LanthaScreen JH2-V617F Binding Assay
Applied conditions: JAK2 JH2-V617F 0.26 nM, 50 nM fluorescent tracer, 1 hour at 25° C.; read-out: JH2 BIND V617F IC50
pIC50: −log10 of the molar value. Where a name gives a salt, the structure may show the parent alone.

Molecule	pIC50
CN1C(=O)NCc2c1cnc1[nH]c(-c3ccc(CN4CCC(S(C)(=O)=O)CC4)cc3)cc21	6.00 to 6.30
COCCNc1ccc(N2Cc3c(cnc4[nH]c(-c5ccc(CN6CCC(S(C)(=O)=O)CC6)cc5)cc34)N(C)C2=O)cc1	6.00 to 6.30
COc1ccc(-c2c(-c3ccc(CN4CCC(S(C)(=O)=O)CC4)cc3)[nH]c3ncc4c(c23)CN(c2ccc(C(=O)Nc3cccnc3)cc2)C(=O)N4C)cc1 [Example 11, Bistrifluoroacetic Acid Salt]	≥ 7.00
CN1C(=O)N(c2ccc(C(=O)O)cc2)Cc2c1cnc1[nH]c(-c3ccc(CN4CCC(S(C)(=O)=O)CC4)cc3)c(I)c21 [Example 25, Trifluoroacetic Acid Salt]	≥ 7.00
CN1C(=O)N(c2ccc(C(=O)O)cc2)Cc2c1cnc1[nH]c(-c3ccc(CN4CCC(S(C)(=O)=O)CC4)cc3)c(C#N)c21 [Example 24, Trifluoroacetic Acid Salt]	6.30 to 7.00
COC(=O)c1c(-c2ccc(CN3CCC(S(C)(=O)=O)CC3)cc2)[nH]c2ncc3c(c12)CN(c1ccc(C(=O)O)cc1)C(=O)N3C [Example 15, Trifluoroacetic Acid Salt]	6.30 to 7.00
CC(=O)N1CC=C(c2c(-c3ccc(CN4CCC(S(C)(=O)=O)CC4)cc3)[nH]c3ncc4c(c23)CN(c2ccc(C(=O)O)cc2)C(=O)N4C)CC1 [Example 20, Trifluoroacetic Acid Salt]	≥ 7.00
CS(=O)(=O)C1CCN(Cc2ccc(-c3cc4c5c(cnc4[nH]3)NC(=O)N(C3CCCCC3)C5)cc2)CC1	6.00 to 6.30
